biological target: PAK7 (human) (UniProt Q9P286); assay: radiometric filter-binding kinase assay, Kinase HotSpot; details: compound 0.5 µM; ATP 10 µM
Sequence (Q9P286 whole entry, looked up): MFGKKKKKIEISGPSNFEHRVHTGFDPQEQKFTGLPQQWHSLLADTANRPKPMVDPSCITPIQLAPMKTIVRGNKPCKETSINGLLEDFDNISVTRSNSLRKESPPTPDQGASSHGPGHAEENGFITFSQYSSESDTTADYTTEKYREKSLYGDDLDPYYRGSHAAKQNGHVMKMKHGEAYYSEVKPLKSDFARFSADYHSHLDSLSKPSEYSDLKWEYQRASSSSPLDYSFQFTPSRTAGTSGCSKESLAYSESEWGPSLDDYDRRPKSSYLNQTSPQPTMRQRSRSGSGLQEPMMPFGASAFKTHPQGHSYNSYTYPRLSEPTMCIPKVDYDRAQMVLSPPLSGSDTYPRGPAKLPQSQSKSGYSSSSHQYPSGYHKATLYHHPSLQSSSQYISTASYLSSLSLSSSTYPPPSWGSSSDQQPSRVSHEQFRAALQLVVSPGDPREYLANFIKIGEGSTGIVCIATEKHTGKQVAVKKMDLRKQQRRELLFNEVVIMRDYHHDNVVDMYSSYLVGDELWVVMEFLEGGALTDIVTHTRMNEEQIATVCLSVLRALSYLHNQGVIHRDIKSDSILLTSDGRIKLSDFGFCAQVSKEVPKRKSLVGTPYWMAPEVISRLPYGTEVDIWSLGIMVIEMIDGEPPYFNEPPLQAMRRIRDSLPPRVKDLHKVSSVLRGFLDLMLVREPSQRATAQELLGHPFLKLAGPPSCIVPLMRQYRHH
# binarize residual activity: threshold 90% inclusive, high side met, low side not met

- compound: "c1ccc(-c2n[nH]cc2-c2ccnc3ccccc23)nc1"
  class-name: "met"
- compound: "N#C/C(=C(/N)Sc1ccc(N)cc1)c1ccccc1C(F)(F)F"
  class-name: "met"
- compound: "CNC(=O)c1cc(Oc2ccc(NC(=O)Nc3ccc(Cl)c(C(F)(F)F)c3)cc2)ccn1"
  class-name: "met"
- compound: "O=C1NC(=O)C(c2cn(CCCn3ccnc3)c3ccccc23)=C1Nc1ccccc1"
  class-name: "met"
- compound: "N#CC(C#N)=C(N)/C(C#N)=C/c1ccc(O)cc1"
  class-name: "met"
- compound: "COc1ccc(COc2ccc(Cc3cnc(N)nc3N)cc2OC)cc1"
  class-name: "met"
- compound: "Cc1ccc(NC2=CC(=O)c3sc(C)nc3C2=O)cc1"
  class-name: "not met"
- compound: "CC#CC(=O)Nc1cc2c(Nc3ccc(F)c(Cl)c3)ncnc2cn1"
  class-name: "met"
- compound: "CCN(CC)CCNC(=O)c1c(C)[nH]c(/C=C2\\C(=O)Nc3ccc(F)cc32)c1C"
  class-name: "not met"
- compound: "CO[C@H]1CC2CC[C@@H](C)[C@@](O)(O2)C(=O)C(=O)N2CCCC[C@H]2C(=O)OC([C@H](C)C[C@@H]2CC[C@@H](O)[C@H](OC)C2)CC(=O)[C@H](C)/C=C(\\C)[C@@H](O)[C@@H](OC)C(=O)[C@H](C)C[C@H](C)/C=C/C=C/C=C/1C (stereo partly specified)"
  class-name: "met"
- compound: "CC(C)N(CCC(=O)c1ccc2ccccc2c1)Cc1ccccc1"
  class-name: "met"
- compound: "CCN(CC)CCNC(=O)c1c(C)[nH]c(/C=C2\\C(=O)Nc3ccc(Cl)cc32)c1C"
  class-name: "not met"
- compound: "Cc1[nH]c(/C=C2\\C(=O)Nc3ccc(S(=O)(=O)N(C)c4cccc(Cl)c4)cc32)c(C)c1C(=O)N1CCN(C)CC1"
  class-name: "met"
- compound: "COc1cc2ncnc(Nc3cccc(Cl)c3)c2cc1OC"
  class-name: "not met"
- compound: "CC[n+]1c(/C=C/N(C)c2ccccc2)n(-c2ccccc2)c2ccc(-c3nc4ccccc4s3)cc21"
  class-name: "met"
- compound: "O=c1cc(N2CCOCC2)oc2c1ccc1ccccc12"
  class-name: "met"
- compound: "O=C1NC(=O)c2c1c1c3ccccc3n3c1c1c2c2ccccc2n1C1CCC3O1"
  class-name: "not met"
- compound: "CC(=O)c1ccc(N2CCOCC2)cc1O"
  class-name: "met"

The values you see were collected from the kinase profiling compilation of Christmann-Franck et al. (2016).
